# measured-on: Growth hormone secretagogue receptor type 1 (Homo sapiens, UniProt Q92847)
# Sequence (Q92847 whole entry): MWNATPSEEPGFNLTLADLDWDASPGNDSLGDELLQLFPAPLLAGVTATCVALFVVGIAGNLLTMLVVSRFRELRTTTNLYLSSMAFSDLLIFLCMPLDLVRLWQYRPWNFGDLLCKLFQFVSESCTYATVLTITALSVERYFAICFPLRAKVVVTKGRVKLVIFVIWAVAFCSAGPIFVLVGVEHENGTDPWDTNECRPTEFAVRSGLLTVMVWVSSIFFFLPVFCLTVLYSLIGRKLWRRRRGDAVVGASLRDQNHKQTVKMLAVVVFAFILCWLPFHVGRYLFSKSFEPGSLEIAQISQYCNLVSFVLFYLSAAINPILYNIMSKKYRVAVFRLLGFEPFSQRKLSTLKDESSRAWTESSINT
# method-description: Binding affinity towards cloned human Growth hormone secretagogue receptor type I in LLC PK-1 cells using [125I][His9]-ghrelin as radioligand
# Assay type: cell-based
pIC50: −log10 of the molar value. Non-standard residues stand in square brackets, D forms with d. Residues, ends and D or L forms follow the SMILES beside them. dTrp(2-Me) = Cc1[nH]c2ccccc2c1C[C@@H](N)C(=O)O
Reported values of pIC50 for individual entries
metric-name: pIC50

compound=CNC(C)(C)C(=O)N[C@H](Cc1c[nH]c2ccccc12)C(=O)N[C@H](Cc1c[nH]c2ccccc12)NC(=O)CC(C)C reading=6.40
compound=CNC(C)(C)C(=O)N[C@H](Cc1c[nH]c2ccccc12)C(=O)N(C)[C@H](Cc1c[nH]c2ccccc12)NC(C)=O reading=7.53
compound=CCC(=O)N[C@@H](Cc1c[nH]c2ccccc12)NC(=O)[C@@H](Cc1c[nH]c2ccccc12)NC(=O)C(C)(C)NC reading=6.78
compound=CC(=O)N[C@@H](Cc1c[nH]c2ccccc12)NC(=O)[C@@H](Cc1c[nH]c2ccccc12)NC(=O)C(C)(C)N(C)C reading=6.36
compound=NC1(C(=O)N[C@H](Cc2c[nH]c3ccccc23)C(=O)N[C@H](Cc2c[nH]c3ccccc23)NC=O)CCNCC1 reading=6.47
compound=CC(C)CC(=O)N[C@@H](Cc1c[nH]c2ccccc12)NC(=O)[C@@H](Cc1c[nH]c2ccccc12)NC(=O)C(C)(C)N reading=6.27
compound=CNC(C)(C)C(=O)N[C@H](Cc1c[nH]c2ccccc12)C(=O)N[C@H](Cc1c[nH]c2ccccc12)NC(C)=O reading=7.24
compound=CC(C)(N)C(=O)N[C@H](Cc1c[nH]c2ccccc12)C(=O)N[C@H](Cc1c[nH]c2ccccc12)NC=O reading=6.91
compound=CNC(C)(C)C(=O)N[C@H](Cc1c[nH]c2ccccc12)C(=O)N[C@H](Cc1c[nH]c2ccccc12)NC=O reading=7.64
compound=CCC(=O)N[C@@H](Cc1c[nH]c2ccccc12)NC(=O)[C@@H](Cc1c[nH]c2ccccc12)NC(=O)C(C)(C)N reading=6.34
compound=CC(=O)N[C@@H](Cc1c[nH]c2ccccc12)NC(=O)[C@@H](Cc1c[nH]c2ccccc12)NC(=O)C(C)(C)N reading=6.64
compound=CCNC(=O)N[C@@H](Cc1c[nH]c2ccccc12)NC(=O)[C@@H](Cc1c[nH]c2ccccc12)NC(=O)C(C)(C)N reading=6.79
compound=CCOC(=O)N[C@@H](Cc1c[nH]c2ccccc12)NC(=O)[C@@H](Cc1c[nH]c2ccccc12)NC(=O)C(C)(C)N reading=6.91
compound=CC(=O)N[C@@H](Cc1c[nH]c2ccccc12)NC(=O)[C@@H](Cc1c[nH]c2ccccc12)NC(=O)C1CCNCC1 reading=6.09
compound="CC(C)(N)C(=O)N[C@H](Cc1c[nH]c2ccccc12)C(=O)N[C@H](Cc1c[nH]c2ccccc12)NC(=O)C1CCCCN1 (some centres not stated)" reading=6.94
compound=O=CN[C@@H](Cc1c[nH]c2ccccc12)NC(=O)[C@@H](Cc1c[nH]c2ccccc12)NC(=O)C1CCNCC1 reading=5.94
compound="Cc1[nH]c2ccccc2c1C[C@@H](NC(=O)[C@H](Cc1c[nH]cn1)NC(=O)[C@H](C)NC(=O)[C@@H](N)Cc1ccc(O)cc1)C(=O)N[C@@H](C)C(=O)N[C@@H](Cc1c[nH]c2ccccc12)C(=O)N[C@H](Cc1ccccc1)C(=O)N[C@@H](CCCCN)C(N)=O (H-YAH[dTrp(2-Me)]AW[dF]K-NH2)" reading=6.54
